Hi there, I'd appreciate the recorded log10 kinact/KI for every entry that follows.
# Target: human granzyme A (Homo sapiens, UniProt P12544)
# Construct: human cytotoxic lymphocyte granzyme A; endogenous in cells; host or cells: human cytotoxic lymphocytes
# Sequence (P12544 29-262): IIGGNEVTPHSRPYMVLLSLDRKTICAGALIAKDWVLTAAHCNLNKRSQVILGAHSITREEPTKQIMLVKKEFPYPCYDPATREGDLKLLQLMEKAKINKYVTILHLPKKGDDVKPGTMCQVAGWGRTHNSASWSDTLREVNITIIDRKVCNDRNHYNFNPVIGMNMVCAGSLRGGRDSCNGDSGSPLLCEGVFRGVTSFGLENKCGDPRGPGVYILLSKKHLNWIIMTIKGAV
# Protocol text: Inactivation rate of human granzyme A
# Assay type: biochemical
# Experimental conditions: Table VII; pH 7.5, 25° C; [I] 0.4 to 45 μM; read-out: kobs/[I]
The common logarithm of kinact/KI in M⁻¹ s⁻¹ is what is listed.

log10 kinact/KI for N=C(N)SCCCOc1oc(=O)c2cc(N)ccc2c1Cl ?
3.83

Which log10 kinact/KI is reported for this molecule? CCOc1oc(=O)c2cc(NC(=N)N)ccc2c1Cl
3.84

Look up log10 kinact/KI: O=c1oc(Cl)c(Cl)c2ccccc12 [3,4-dichloroisocoumarin, reference compound]
1.70

Which value of log10 kinact/KI has been reported for N=C(N)SCCCOc1oc(=O)c2ccccc2c1Cl in the records?
4.26

Name the reported log10 kinact/KI value associated with the molecule NCCCOc1oc(=O)c2ccccc2c1Cl
3.30

====

# Target: rat skin tryptase (Rattus norvegicus)
# Construct: from tissue; host or cells: rat skin
# Sequence (P27435 29-273): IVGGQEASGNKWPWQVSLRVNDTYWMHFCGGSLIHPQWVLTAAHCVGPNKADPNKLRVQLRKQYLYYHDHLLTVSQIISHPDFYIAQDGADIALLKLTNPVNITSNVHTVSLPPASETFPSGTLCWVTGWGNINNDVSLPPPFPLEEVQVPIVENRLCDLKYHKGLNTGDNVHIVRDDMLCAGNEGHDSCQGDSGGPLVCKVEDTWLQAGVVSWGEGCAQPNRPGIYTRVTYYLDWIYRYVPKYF
# Protocol text: Inactivation rate of rat skin tryptase
# Assay type: biochemical
# Experimental conditions: pH 7.5, Table IX; pH 7.5, 25° C; [I] 0.42-0.51 μM; read-out: kobs/[I]
Endpoint label: kinact/KI

Reported kinact/KI, compound N=C(N)SCCCOc1oc(=O)c2cc(NC(=O)Cc3ccccc3)ccc2c1Cl : ____
145000 M⁻¹ s⁻¹

Form field: reported kinact/KI of N=C(N)SCCOc1oc(=O)c2cc(NC(=O)Cc3ccccc3)ccc2c1Cl
120000 M⁻¹ s⁻¹

For the compound N=C(N)SCCCOc1oc(=O)c2cc(NC(=O)[C@@H](N)Cc3ccccc3)ccc2c1Cl , what kinact/KI is on record?
96000 M⁻¹ s⁻¹

Fill in the blank: the reported kinact/KI of CC(C)(C)OC(=O)N[C@H](Cc1ccccc1)C(=O)Nc1ccc2c(Cl)c(OCCSC(=N)N)oc(=O)c2c1 is ____.
135000 M⁻¹ s⁻¹

I'd like to know its kinact/KI. The compound in question is N=C(N)SCCOc1oc(=O)c2cc(NC(=O)Nc3ccccc3)ccc2c1Cl
170000 M⁻¹ s⁻¹

Fill blank: measured kinact/KI of the compound N=C(N)SCCCOc1oc(=O)c2cc(NC(=O)NCc3ccccc3)ccc2c1Cl is ____.
270000 M⁻¹ s⁻¹

I would be grateful if you could share the reported kinact/KI for N=C(N)SCCOc1oc(=O)c2cc(NC(=O)NCc3ccccc3)ccc2c1Cl .
200000 M⁻¹ s⁻¹

====

# Target: human factor XIIa (Homo sapiens, UniProt P00748)
# Construct: human factor XIIa
# Sequence (P00748 373-615 limits assumed): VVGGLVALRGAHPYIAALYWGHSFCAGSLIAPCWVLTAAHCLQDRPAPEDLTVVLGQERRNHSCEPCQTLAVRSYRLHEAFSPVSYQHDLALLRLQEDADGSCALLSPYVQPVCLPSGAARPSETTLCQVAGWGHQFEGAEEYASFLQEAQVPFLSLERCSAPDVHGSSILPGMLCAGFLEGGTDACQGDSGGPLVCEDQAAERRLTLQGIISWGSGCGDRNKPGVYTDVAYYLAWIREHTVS
# Sequence (P00748 20-372 partner limits assumed): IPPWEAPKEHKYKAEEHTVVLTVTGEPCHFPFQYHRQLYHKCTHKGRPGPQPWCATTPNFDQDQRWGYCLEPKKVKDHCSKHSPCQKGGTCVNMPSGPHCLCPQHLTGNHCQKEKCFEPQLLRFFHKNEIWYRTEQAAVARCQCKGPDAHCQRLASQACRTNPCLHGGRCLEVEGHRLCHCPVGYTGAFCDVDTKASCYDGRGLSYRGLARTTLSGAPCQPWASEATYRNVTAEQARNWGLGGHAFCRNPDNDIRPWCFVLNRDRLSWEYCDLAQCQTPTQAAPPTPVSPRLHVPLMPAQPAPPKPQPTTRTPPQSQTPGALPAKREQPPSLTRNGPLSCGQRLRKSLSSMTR
# Protocol text: Inactivation rate of human factor XIIa
# Type: biochemical
# Experimental conditions: Table I; pH 7.5, 25° C; [I] 3 to 330 μM; read-out: kobs/[I]
# kinact/KI >= 1000 M⁻¹ s⁻¹ gives fulfilled, anything below gives not fulfilled

Item COc1cc2ccc(NC(=N)N)cc2c(=O)o1 with kinact/KI of 1000 M⁻¹ s⁻¹ or above?
not fulfilled

API: above_or_equal(metric=kinact/KI, cutoff=1000 M⁻¹ s⁻¹) for item N=C(N)SCCCOc1oc(=O)c2ccccc2c1Cl
fulfilled

Is kinact/KI for COc1oc(=O)c2cc(NC(=N)N)ccc2c1Cl at or above 1000 M⁻¹ s⁻¹?
fulfilled

Can CCOc1oc(=O)c2cc(NC(=N)N)ccc2c1Cl be said to have kinact/KI at or above 1000 M⁻¹ s⁻¹?
fulfilled

Record NCCCOc1cc2ccccc2c(=O)o1 ; criterion: kinact/KI no lower than 1000 M⁻¹ s⁻¹. Met?
not fulfilled

Is kinact/KI for N=C(N)Nc1ccc2c(Cl)c(OCCc3ccccc3)oc(=O)c2c1 at or above 1000 M⁻¹ s⁻¹?
fulfilled

Assess whether reported kinact/KI for NCCCOc1oc(=O)c2ccccc2c1Cl sits at 1000 M⁻¹ s⁻¹ or higher.
not fulfilled

Given the entry N=C(N)SCCOc1oc(=O)c2ccccc2c1Cl , answer whether its kinact/KI meets or surpasses 1000 M⁻¹ s⁻¹.
fulfilled

Dear colleague, could you confirm whether N=C(N)Nc1ccc2cc(OCCc3ccccc3)oc(=O)c2c1 has kinact/KI at or above 1000 M⁻¹ s⁻¹?
not fulfilled

Decide: kinact/KI of N=C(N)SCCCOc1oc(=O)c2cc(N)ccc2c1Cl >= 1000 M⁻¹ s⁻¹?
fulfilled

Determine whether measured kinact/KI meets or exceeds 1000 M⁻¹ s⁻¹ for CCOc1cc2ccc(NC(=N)N)cc2c(=O)o1
fulfilled

====

# Target: human leukocyte elastase (HLE) (Homo sapiens, UniProt P08246)
# Construct: from tissue; host or cells: human leukocytes (from the name)
# Protocol text: Inactivation of human leukocyte elastase (HLE)
# Format: biochemical
# Experimental conditions: Table X; pH 7.5, 25° C; [I] 2.1-42 μM; read-out: kobs/[I]
I'd be grateful if you could share measured kinact/KI for these entries.
Hi! Could you send only the number? It should be in M⁻¹ s⁻¹, unit omitted.

# returns recorded kinact/KI (system: human leukocyte elastase (HLE) (Homo sapiens, UniProt P08246)) for CC(C)(C)OC(=O)N[C@H](Cc1ccccc1)C(=O)Nc1ccc2c(Cl)c(OCCSC(=N)N)oc(=O)c2c1
3100

Request - read-out kinact/KI | tested on human leukocyte elastase (HLE) (Homo sapiens, UniProt P08246) | compound N=C(N)SCCCOc1oc(=O)c2cc(NC(=O)Cc3ccccc3)ccc2c1Cl
130

Under human leukocyte elastase (HLE) (Homo sapiens, UniProt P08246): kinact/KI value of CC(=O)Nc1ccc2c(Cl)c(OCCCSC(=N)N)oc(=O)c2c1 ?
200

Fill in the recorded kinact/KI for this compound, with human leukocyte elastase (HLE) (Homo sapiens, UniProt P08246) as test system: N=C(N)SCCCOc1oc(=O)c2cc(NC(=O)NCc3ccccc3)ccc2c1Cl
250

====

# Target: chymotrypsin (Bos taurus)
# Protocol text: Inactivation of chymotrypsin
# Format: biochemical, bovine
# Experimental conditions: Table X; pH 7.5, 25° C; [I] 0.9-43 μM; read-out: kobs/[I]
So I've got a bunch of compounds here, and I need their kinact/KI values.
Report the figure in M⁻¹ s⁻¹ without appending any unit label.

If you can, please state the reported kinact/KI value of N=C(N)SCCOc1oc(=O)c2cc(NC(=O)Nc3ccccc3)ccc2c1Cl [PhNHCONH-CiTEtOIC] .
16000

Quick one: kinact/KI for N=C(N)SCCOc1oc(=O)c2cc(NC(=O)[C@@H](N)Cc3ccccc3)ccc2c1Cl [L-Phe--NH-CiTEtOIC] ?
8400

Given the compound N=C(N)SCCCOc1oc(=O)c2cc(NC(=O)NCc3ccccc3)ccc2c1Cl [PhCH2 NHCONH-CiTPrOIC] , what is its reported kinact/KI?
13400

# query: kinact/KI of entry CC(C)(C)OC(=O)N[C@H](Cc1ccccc1)C(=O)Nc1ccc2c(Cl)c(OCCSC(=N)N)oc(=O)c2c1 [Boc-D-Phe--NH-CiTEtOIC]
220

====

Hi there, I'd appreciate the recorded kinact/KI for every entry that follows.
# Target: chymotrypsin (Bos taurus)
# Protocol text: Inactivation of chymotrypsin
# Type: biochemical, bovine
# Experimental conditions: Table XVI; pH 7.5, 25° C; [I] 1.7-58 μM; read-out: kobs/[I]
Quote the value and follow it with the unit of measurement.

Please report the recorded kinact/KI for O=C(Nc1ccccc1)Nc1ccc2c(Cl)c(OCCBr)oc(=O)c2c1 .
12 M⁻¹ s⁻¹

Looking for the measured kinact/KI of CC(C)(C)OC(=O)N[C@H](Cc1ccccc1)C(=O)Nc1ccc2c(Cl)c(OCCBr)oc(=O)c2c1 , can you help?
150 M⁻¹ s⁻¹

Any idea what its kinact/KI is? The molecule is O=C(O)c1cccc(NC(=S)Nc2ccc3c(Cl)c(OCCBr)oc(=O)c3c2)c1
1960 M⁻¹ s⁻¹

Please give the measured kinact/KI for this molecule: CCCOc1oc(=O)c2cc(N)ccc2c1Cl
375 M⁻¹ s⁻¹

Which kinact/KI is listed for O=C(Nc1ccccc1)Nc1ccc2c(Cl)c(OCCCBr)oc(=O)c2c1 ?
180 M⁻¹ s⁻¹

====

# Target: human leukocyte elastase (HLE) (Homo sapiens, UniProt P08246)
# Construct: from tissue; host or cells: human leukocytes (from the name)
# Sequence (P08246 30-267): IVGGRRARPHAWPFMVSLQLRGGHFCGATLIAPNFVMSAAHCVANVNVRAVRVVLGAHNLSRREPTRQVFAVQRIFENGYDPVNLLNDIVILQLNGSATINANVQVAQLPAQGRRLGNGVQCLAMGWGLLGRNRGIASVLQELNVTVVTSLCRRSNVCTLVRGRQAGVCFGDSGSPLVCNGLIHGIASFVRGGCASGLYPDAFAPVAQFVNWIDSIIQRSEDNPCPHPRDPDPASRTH
# Protocol text: Inactivation of human leukocyte elastase (HLE)
# Assay type: biochemical
# Experimental conditions: Table XI; pH 7.5, 25° C; [I] 1.4-6.6 μM, per line; read-out: kobs/[I]
Binary classification by kinact/KI, with 50000 M⁻¹ s⁻¹ as an inclusive lower bound for T; all other cases are F.

Exam item: decide whether the reported kinact/KI for COc1oc(=O)c2cc(NC(=O)OCc3ccccc3)ccc2c1Cl is at least 50000 M⁻¹ s⁻¹.
T

Decide: is the reported value of kinact/KI for CNC(=O)Nc1ccc2c(Cl)c(OC)oc(=O)c2c1 equal to or greater than 50000 M⁻¹ s⁻¹?
F

Does the compound COc1oc(=O)c2cc(NC(=O)NC(C)C)ccc2c1Cl have recorded kinact/KI that is 50000 M⁻¹ s⁻¹ or more?
F

Entry COC(=O)CCC(=O)Nc1ccc2c(Cl)c(OC)oc(=O)c2c1 : is its kinact/KI no less than 50000 M⁻¹ s⁻¹?
F

Say whether COc1oc(=O)c2cc(NC(=O)CC(CC(=O)O)c3ccccc3)ccc2c1Cl (stereo not drawn) shows kinact/KI of 50000 M⁻¹ s⁻¹ or more.
T
